assay: Cytotoxicity against African green monkey Vero E6 cells assessed as reduction in cell viability incubated for 10 days by neutral red dye based spectrophotometry analysis; parameters: species or system Vero C1008; settings: chlorocebus sabaeus
Known CC50 at 240 h of a selection of compounds

Observe how each entry below is paired with its result.
| COMPOUND | ENDPOINT NAME | VALUE |
| --- | --- | --- |
| CC12CC3CC(C(=O)N[C@H]4CC[C@H](CN)CC4)(C1)CC(c1ccccc1)(C3)C2 (stereo in doubt; 40) | CC50 at 240 h | 22 µM |
| CCC12CC3CC(C(=O)N[C@H]4CC[C@H](N)CC4)(C1)CC(c1ccccc1)(C3)C2 (stereo in doubt; 42) | CC50 at 240 h | 31 µM |
| CC12CC3CC(C(=O)N[C@H]4CC[C@H](N)CC4)(C1)CC(c1ccccc1)(C3)C2 (stereo in doubt; 38) | CC50 at 240 h | 58 µM |

Data request, read-out CC50 at 240 h, for "C[C@]12C[C@@H]3C[C@](C(=O)NC4CCNCC4)(C1)C[C@@](c1ccccc1)(C3)C2"
71 µM

* * *

Known Stability of a selection of compounds
test: Metabolic stability in human liver microsomes assessed as parent compound remaining at 1 uM pretreated for 30 mins followed by NADPH addition and measured after 60 mins by LC-MS/MS analysis; type: ADME, Microsome; conditions: microsomes, 1 h, 1 µM
Answer format: numeric, % implied, no suffix.

| COMPOUND | UNIT SPEC | Stability |
| --- | --- | --- |
| C[C@]12C[C@@H]3C[C@](C(=O)NC4CCNCC4)(C1)C[C@@](c1ccccc1)(C3)C2 | % | 81 |
| CC12CC3CC(C(=O)N[C@H]4CC[C@H](CN)CC4)(C1)CC(c1ccccc1)(C3)C2 (stereo in doubt; 40) | % | 82 |
| CC12CC3CC(C(=O)N[C@H]4CC[C@H](N)CC4)(C1)CC(c1ccccc1)(C3)C2 (stereo in doubt; 38) | % | 100 |

Turning now to a further record.
Data request, read-out Stability, for CCC12CC3CC(C(=O)N[C@H]4CC[C@H](N)CC4)(C1)CC(c1ccccc1)(C3)C2 (stereo in doubt; 42)
65

* * *

assay: Inhibition of glycoprotein in VSV pseudotyped Ebolavirus infected in African green monkey Vero cells assessed as reduction in virus entry incubated for 24 hrs by luciferase reporter gene assay; format: cell-based; conditions: Orthoebolavirus, Vero, 24 h
Known EC50 of a selection of compounds
Answer format: numeric, nM implied, no suffix.

Observe how each entry below is paired with its result.
| COMPOUND | EC50 (nM) |
| --- | --- |
| CC12CC3CC(C(=O)NCCN)(C1)CC(c1ccccc1)(C3)C2 (racemic) | 250 |
| NC1CCN(C(=O)C23CC4CC(C2)CC(c2ccccc2)(C4)C3)CC1 | 120 |
| CC12CC3CC(C(=O)N4CCNCC4)(C1)CC(c1ccccc1)(C3)C2 (racemic) | 130 |
| CC12CC3(C)CC(C(=O)NC4CCNCC4)(C1)CC(c1ccccc1)(C2)C3 | 320 |
| CC12CC3CC(C(=O)N[C@@H]4CCNC[C@H]4F)(C1)CC(c1ccccc1)(C3)C2 (mixture of isomers) | 33 |
| CC12CC3CC(C(=O)NCC4CCNCC4)(C1)CC(c1ccccc1)(C3)C2 (racemic) | 420 |
| CC12CC3CC(C(=O)NC4CNC4)(C1)CC(c1ccccc1)(C3)C2 (racemic) | 280 |
| CN1CCC(N(C)C(=O)C23CC4CC(C2)CC(c2ccccc2)(C4)C3)CC1 | 280 |

Data request, read-out EC50, for "CN1CCC(NC(=O)C23CC4CC(C2)CC(c2ccccc2)(C4)C3)CC1"
160

Data request, read-out EC50, for "O=C(NC1CCNCC1)C12CC3CC(C1)CC(c1ccc(F)cc1)(C3)C2"
310

Data request, read-out EC50, for "O=C(N1CCc2ccccc2C1)C12CC3CC(C1)CC(c1ccccc1)(C3)C2"
2300
